System: T-24
measurement protocol: Antiproliferative activity against human T24 cells after 24 hrs by CCK-8 assay
Format: functional, cell-based
condition label: T-24, 24 h
metric name: IC50

smiles code: COc1ccc([C@]23O[C@@H]4C2O[C@](OC)([C@H]3O)[C@]4(O)c2ccc(O)cc2)cc1
result: 46.6 µM

The reported numbers originate from ChEMBL document CHEMBL4196104.
